molecular target: SARS-CoV-2 3CLpro (Severe acute respiratory syndrome coronavirus 2, UniProt P0DTD1); assay: biochemical; assay type: biochemical; design: unit not given here; conditions: sheet LOPAC_screen_w_protease; primary screen with protease, compound at 5 µM; replicate 1
Replicate_1 for assorted compounds
Number only, please.

Solved cases (7 shown):
>>> df
                                   compound                              assay_target  result_value
0  Nc1ncnc2c1ncn2[C@@H]1O[C@H](COP(=O)(O)CP(=O)(O)OP(=O)([O-])[O-])[C@H](O)C1O.[Li+].[Li+] (some centres unmarked)  SARS-CoV-2 3CLpro (Severe acute respiratory syndrome coronavirus 2, UniProt P0DTD1)         1.677
1  CCN(CC)CCOC(=O)c1cc(Cl)c(N)cc1OC.Cl [SDZ-205,557 hydrochloride]  SARS-CoV-2 3CLpro (Severe acute respiratory syndrome coronavirus 2, UniProt P0DTD1)         3.796
2  Nc1nc2c(nc(Br)n2[C@@H]2O[C@@H]3COP(=O)([O-])O[C@H]3[C@H]2O)c(=O)[nH]1.[Na+] [8-Bromo-cGMP sodium]  SARS-CoV-2 3CLpro (Severe acute respiratory syndrome coronavirus 2, UniProt P0DTD1)           4.1
3  N[C@H](CCCCCP(=O)(O)O)C(=O)O [D(-)-2-Amino-7-phosphonoheptanoic acid]  SARS-CoV-2 3CLpro (Severe acute respiratory syndrome coronavirus 2, UniProt P0DTD1)         3.469
4  OC[C@H]1O[C@@H](n2cnc3c(N[C@H]4CC5CCC4C5)ncnc32)[C@H](O)[C@@H]1O (stereo partly drawn) [(S)-ENBA]  SARS-CoV-2 3CLpro (Severe acute respiratory syndrome coronavirus 2, UniProt P0DTD1)          4.26
5  CCCOC(=O)c1c(-c2ccccc2)nc(CC)c(C(=O)SCC)c1CCC  SARS-CoV-2 3CLpro (Severe acute respiratory syndrome coronavirus 2, UniProt P0DTD1)         3.943
6                     O=c1onc2cnc3ccccc3n12  SARS-CoV-2 3CLpro (Severe acute respiratory syndrome coronavirus 2, UniProt P0DTD1)         2.693

Could you now consider this next compound?
Q: Using the record for COc1ccccc1N1CCN(CCN2C(=O)CC3(CCCC3)CC2=O)CC1.Cl.Cl [BMY 7378 dihydrochloride] , report its Replicate_1.
A: 2.1144
